Hey, just so you know, these numbers are from patent US8367644B2.

Consider the following compounds; for each one, report its IC50.
target or system: Bcl-xL (Homo sapiens, UniProt Q07817)
Construct: made in house
Sequence (Q07817 whole entry): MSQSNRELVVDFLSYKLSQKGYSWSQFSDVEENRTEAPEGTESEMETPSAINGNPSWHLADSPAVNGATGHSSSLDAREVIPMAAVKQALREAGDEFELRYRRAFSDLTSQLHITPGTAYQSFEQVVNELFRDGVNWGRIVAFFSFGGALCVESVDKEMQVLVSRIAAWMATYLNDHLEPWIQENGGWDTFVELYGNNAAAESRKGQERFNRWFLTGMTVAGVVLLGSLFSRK
measurement description: Fluorescence polarization-based competitive binding assay (FPA) with fluorescein-labeled Bad peptide
settings: Table 2, black tea extracts; target Bcl-xL inferred from text and figure legends; read-out: IC50
Return type: number; implicit unit nM.

For this compound ( O=c1c(O)cc([C@H]2Oc3cc(O)cc(O)c3C[C@H]2O)cc2c([C@H]3Oc4cc(O)cc(O)c4C[C@H]3O)cc(O)c(O)c12 [Theaflavin] ), measured IC50 is 1050

For this compound ( O=c1c(O)cccc2c([C@H]3Oc4cc(O)cc(O)c4C[C@H]3O)cc(O)c(O)c12 [Theaflavanin] ), measured IC50 is 550

For this compound ( O=C(O[C@H]1Cc2c(O)cc(O)cc2OC1c1cc(O)c(=O)c2c(O)c(O)cc([C@H]3Oc4cc(O)cc(O)c4C[C@H]3O)c2c1)c1cc(O)c(O)c(O)c1 (stereo partly drawn) [Theaflavin-3′-gallate] ), measured IC50 is 600

====

target or system: Bcl-xL (Homo sapiens)
Construct: made in house
measurement description: Fluorescence polarization-based competitive binding assay (FPA) with fluorescein-labeled Bad peptide
settings: Table 1, green tea extracts; target Bcl-xL inferred from text and figure legends; read-out: IC50
Consider the following compounds; for each one, report its pIC50.
pIC50 is defined as minus the log10 of a concentration measured in mol/L.

For this compound ( O=C(O[C@@H]1Cc2c(O)cc(O)cc2O[C@H]1c1cc(O)c(O)c(O)c1)c1cc(O)c(O)c(O)c1 [(−) Gallocatechin-3-gallate (GCG), (−) Gallocatechin-3-gallate] ), measured pIC50 is 6.20

For this compound ( O=C(O[C@@H]1Cc2c(O)cc(O)cc2O[C@H]1c1ccc(O)c(O)c1)c1cc(O)c(O)c(O)c1 [(−) Catechin-3-gallate (CG), (−) Catechin-3-gallate] ), measured pIC50 is 6.54

For this compound ( O=C(O[C@@H]1Cc2c(O)cc(O)cc2O[C@@H]1c1ccc(O)c(O)c1)c1cc(O)c(O)c(O)c1 [(−) Epicatechin-3-gallate (ECG), (−) Epicatechin-3-gallate] ), measured pIC50 is 6.62

For this compound ( O=C(O[C@@H]1Cc2c(O)cc(O)cc2O[C@@H]1c1cc(O)c(O)c(O)c1)c1cc(O)c(O)c(O)c1 [(−) Epigallocatechin-3-gallate (EGCG), (−) Epigallocatechin-3-gallate] ), measured pIC50 is 6.01
